target: 5-HT2C receptor (Homo sapiens, UniProt P28335); construct: host or cells: U2OS; test: Human 5-HT2C functional assay (beta-arrestin2 recruitment, U2OS_HTR2C_β-Arrestin cells); format: cell-based; conditions: relative efficacy vs maximal effect induced by 5-HT (defined as 100%)
Sequence (P28335 33-458): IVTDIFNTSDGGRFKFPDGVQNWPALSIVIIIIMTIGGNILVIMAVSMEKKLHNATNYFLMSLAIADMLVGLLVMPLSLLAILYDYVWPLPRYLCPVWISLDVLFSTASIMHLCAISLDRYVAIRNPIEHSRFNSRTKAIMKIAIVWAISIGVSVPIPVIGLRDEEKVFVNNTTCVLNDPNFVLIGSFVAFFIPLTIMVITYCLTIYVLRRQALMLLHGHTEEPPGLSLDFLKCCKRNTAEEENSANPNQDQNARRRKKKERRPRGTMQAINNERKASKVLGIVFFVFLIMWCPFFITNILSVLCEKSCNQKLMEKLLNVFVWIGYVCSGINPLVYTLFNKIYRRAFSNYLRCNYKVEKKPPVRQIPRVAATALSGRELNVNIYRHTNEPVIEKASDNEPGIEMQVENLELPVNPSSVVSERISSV
Sequence (P32121 whole entry partner): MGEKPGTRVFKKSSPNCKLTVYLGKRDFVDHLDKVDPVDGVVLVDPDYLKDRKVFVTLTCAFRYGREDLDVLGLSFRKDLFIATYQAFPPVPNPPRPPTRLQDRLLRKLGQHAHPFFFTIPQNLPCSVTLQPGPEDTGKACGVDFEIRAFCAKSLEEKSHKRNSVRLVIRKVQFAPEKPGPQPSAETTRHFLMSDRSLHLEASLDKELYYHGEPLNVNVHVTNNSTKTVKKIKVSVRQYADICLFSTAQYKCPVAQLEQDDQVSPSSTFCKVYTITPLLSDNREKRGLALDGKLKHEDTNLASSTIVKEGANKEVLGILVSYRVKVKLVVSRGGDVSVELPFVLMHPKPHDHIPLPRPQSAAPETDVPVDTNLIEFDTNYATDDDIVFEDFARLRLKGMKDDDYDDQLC
Structures can show the parent of a compound that is named as a salt.
measurement label: Emax

{"columns": ["molecule", "measurement"],
 "data": [
  ["COC[C@@H]1C[C@@H]2CNCCN2c2cc(F)cc(C(F)F)c2O1.Cl [Example 9, hydrochloride]", "> 70%"],
  ["COC[C@@H]1C[C@@H]2CNCCN2c2cc(F)cc(C)c2O1.Cl [Example 41, hydrochloride]", "> 70%"],
  ["COC[C@@H]1C[C@@H]2CNCCN2c2cc(F)c(F)c(Cl)c2O1.Cl [Example 38, hydrochloride]", "> 70%"],
  ["COC[C@@H]1C[C@@H]2CNCCN2c2c(F)c(F)c(F)c(Cl)c2O1.Cl [Example 55, hydrochloride]", "> 70%"],
  ["COC[C@@H]1C[C@@H]2CNCCN2c2c(F)c(OC)cc(C(F)F)c2O1.Cl [Example 29, hydrochloride]", "> 70%"],
  ["COC[C@@H]1C[C@@H]2CNCCN2c2cc(F)cc(F)c2O1.Cl [Example 11, hydrochloride]", "> 70%"],
  ["COC[C@@H]1C[C@@H]2CNCCN2c2cc(Cl)c(F)cc2O1.Cl [Example 31, hydrochloride]", "30 to 50%"],
  ["COC[C@@H]1C[C@@H]2CNCCN2c2c(F)c(F)c(OC)c(Cl)c2O1.Cl [Example 53, hydrochloride]", "50 to 70%"],
  ["COC[C@@H]1C[C@@H]2CNCCN2c2cccc(Cl)c2O1.Cl [Example 1, hydrochloride]", "> 70%"],
  ["COC[C@@H]1C[C@@H]2CNCCN2c2c(ccc(F)c2F)O1.Cl [Example 21, hydrochloride]", "30 to 50%"],
  ["COC[C@@H]1C[C@@H]2CNCCN2c2cc(F)cc(C(F)(F)F)c2O1.Cl [Example 22, hydrochloride]", "> 70%"],
  ["COC[C@H]1C[C@@H]2CNCCN2c2cc(F)cc(Cl)c2O1.Cl [Example 35, hydrochloride]", "> 70%"],
  ["COC[C@@H]1C[C@@H]2CNCCN2c2ccc(F)cc2O1.Cl [Example 51, hydrochloride]", "50 to 70%"],
  ["COC[C@@H]1C[C@@H]2CNCCN2c2ccc(C)c(F)c2O1", "50 to 70%"],
  ["COC[C@H]1C[C@@H]2CNCCN2c2cc(F)cc(C(F)F)c2O1.Cl [Example 32, hydrochloride]", "> 70%"],
  ["COC[C@@H]1C[C@@H]2CNCCN2c2ccccc2O1.O=C(O)C(F)(F)F", "50 to 70%"],
  ["Cl.[2H]C([2H])([2H])OC[C@@H]1C[C@@H]2CNCCN2c2cc(F)cc(Cl)c2O1", "> 70%"],
  ["OC[C@@H]1C[C@@H]2CNCCN2c2cc(F)cc(Cl)c2O1 [Example 17, hydrochloride]", "> 70%"],
  ["COC[C@H]1C[C@@H]2CNCCN2c2cccc(Cl)c2O1.O=C(O)C(F)(F)F", "50 to 70%"],
  ["COC[C@@H]1C[C@@H]2CNCCN2c2cccc(C#N)c2O1.Cl [Example 12, hydrochloride]", "> 70%"],
  ["COC[C@@H]1C[C@@H]2CNCCN2c2cc(C)cc(F)c2O1", "50 to 70%"],
  ["COC[C@@H]1C[C@@H]2CNCCN2c2cc(Cl)cc(Cl)c2O1", "> 70%"],
  ["COC[C@@H]1C[C@@H]2CNCCN2c2cccc(C(F)F)c2O1.Cl [Example 6, hydrochloride]", "> 70%"],
  ["COC[C@H]1C[C@@H]2CNCCN2c2c(F)c(F)cc(Cl)c2O1.Cl [Example 37, hydrochloride]", "30 to 50%"]
]}
